Target entity: Nav1.4 (Homo sapiens, UniProt P35499)
Sequence (P35499 whole entry): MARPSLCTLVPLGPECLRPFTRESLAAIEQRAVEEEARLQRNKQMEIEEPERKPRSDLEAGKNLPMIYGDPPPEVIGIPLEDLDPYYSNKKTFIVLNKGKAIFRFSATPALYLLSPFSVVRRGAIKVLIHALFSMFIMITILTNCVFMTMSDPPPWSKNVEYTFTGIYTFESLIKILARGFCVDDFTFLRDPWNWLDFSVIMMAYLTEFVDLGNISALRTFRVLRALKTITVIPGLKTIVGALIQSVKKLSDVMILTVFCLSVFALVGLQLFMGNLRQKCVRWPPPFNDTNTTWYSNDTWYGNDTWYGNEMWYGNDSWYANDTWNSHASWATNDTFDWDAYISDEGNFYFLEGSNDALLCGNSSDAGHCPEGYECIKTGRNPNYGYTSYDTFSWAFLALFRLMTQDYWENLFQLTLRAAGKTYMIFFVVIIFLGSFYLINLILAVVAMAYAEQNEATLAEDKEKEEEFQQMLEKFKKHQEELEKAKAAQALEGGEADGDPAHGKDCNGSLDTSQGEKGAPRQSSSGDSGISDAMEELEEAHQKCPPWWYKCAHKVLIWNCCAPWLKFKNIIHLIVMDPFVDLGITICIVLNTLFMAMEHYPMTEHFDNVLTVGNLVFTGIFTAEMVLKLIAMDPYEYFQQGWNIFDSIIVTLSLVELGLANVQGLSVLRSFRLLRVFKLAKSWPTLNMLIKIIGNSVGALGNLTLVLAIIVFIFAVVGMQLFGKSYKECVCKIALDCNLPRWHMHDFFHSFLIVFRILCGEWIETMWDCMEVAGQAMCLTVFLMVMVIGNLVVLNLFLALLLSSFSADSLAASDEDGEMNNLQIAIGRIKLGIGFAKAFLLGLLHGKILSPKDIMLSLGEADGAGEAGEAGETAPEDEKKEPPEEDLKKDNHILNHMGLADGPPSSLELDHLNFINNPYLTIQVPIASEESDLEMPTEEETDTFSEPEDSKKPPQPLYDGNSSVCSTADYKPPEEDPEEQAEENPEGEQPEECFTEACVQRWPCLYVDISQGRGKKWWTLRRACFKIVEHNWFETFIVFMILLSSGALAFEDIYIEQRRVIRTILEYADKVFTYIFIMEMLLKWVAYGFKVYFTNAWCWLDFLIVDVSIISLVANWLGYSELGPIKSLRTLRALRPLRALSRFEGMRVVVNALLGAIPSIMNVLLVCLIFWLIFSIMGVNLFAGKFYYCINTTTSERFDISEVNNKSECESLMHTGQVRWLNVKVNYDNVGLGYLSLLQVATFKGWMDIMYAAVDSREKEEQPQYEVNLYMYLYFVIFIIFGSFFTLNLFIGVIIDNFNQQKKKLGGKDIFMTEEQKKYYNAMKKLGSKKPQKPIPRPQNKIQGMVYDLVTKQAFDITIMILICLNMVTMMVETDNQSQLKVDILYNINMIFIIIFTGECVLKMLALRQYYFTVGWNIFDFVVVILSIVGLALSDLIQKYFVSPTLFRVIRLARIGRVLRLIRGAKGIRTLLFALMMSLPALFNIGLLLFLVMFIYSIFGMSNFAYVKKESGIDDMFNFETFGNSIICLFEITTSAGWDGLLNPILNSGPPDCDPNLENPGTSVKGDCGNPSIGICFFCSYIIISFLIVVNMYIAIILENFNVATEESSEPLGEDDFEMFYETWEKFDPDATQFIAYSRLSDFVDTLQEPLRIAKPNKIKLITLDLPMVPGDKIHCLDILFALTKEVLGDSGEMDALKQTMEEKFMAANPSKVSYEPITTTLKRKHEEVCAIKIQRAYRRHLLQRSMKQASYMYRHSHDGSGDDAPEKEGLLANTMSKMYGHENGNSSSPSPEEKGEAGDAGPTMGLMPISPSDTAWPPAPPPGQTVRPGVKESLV
Assay explanation: Whole-cell patch clamp, Nav1.4 in transfected HEK cells
Bridge positions count the residues as written; N and C are the ends.
Readout label: IC50 (µM)
Please reply with the bare figure in µM and do not write the unit itself.

Complete the entry with IC50 for GEFINGDCELPKVVGPCRAGFRRYYYNSSSKRCEKFIYGGCRGNANNFHTLEECEKVCGVRS (disulfide 8-58, 17-41, 33-54 (inferred)) [Avd3i, U-actitoxin-Avd3i]
25.4
